Exercise: for every item that follows, state its recorded DC50.
targetOrTestSystem: IRAK4 (Homo sapiens (Human), UniProt Q9NWZ3)
Sequence (Q9NWZ3 whole entry): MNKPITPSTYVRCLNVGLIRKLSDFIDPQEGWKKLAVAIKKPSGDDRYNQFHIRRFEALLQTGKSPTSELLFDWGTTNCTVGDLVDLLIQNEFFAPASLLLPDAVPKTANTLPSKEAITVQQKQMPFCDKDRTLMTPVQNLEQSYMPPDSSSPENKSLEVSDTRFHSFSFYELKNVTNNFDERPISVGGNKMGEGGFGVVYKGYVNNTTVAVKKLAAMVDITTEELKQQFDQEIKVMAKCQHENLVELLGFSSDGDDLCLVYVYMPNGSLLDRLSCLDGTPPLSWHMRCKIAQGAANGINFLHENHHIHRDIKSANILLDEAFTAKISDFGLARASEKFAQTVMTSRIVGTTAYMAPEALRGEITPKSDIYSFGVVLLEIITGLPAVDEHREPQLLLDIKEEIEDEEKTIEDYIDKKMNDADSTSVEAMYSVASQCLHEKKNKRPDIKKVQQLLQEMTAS
methodDescription: IRAK4 MSD degradation in OCI-LY10
Format: cell-based
protocolConditions: OCI-LY10, 4 hrs, MSD; read-out: IRAK4 MSD degradation in OCI-LY10 at 4 hrs: Average external-Abs DC50

List the reported DC50 of each compound below.
1. O=C1CCC(N2C(=O)c3cccc(NCCCOC[C@H]4CN(C[C@H]5CC[C@H](n6cc(NC(=O)c7cnn8ccc(N9CCOCC9)nc78)c(C(F)F)n6)CC5)CCO4)c3C2=O)C(=O)N1 (some centres unmarked) [I-332]
2. CC[C@@H]1[C@H](F)C(=O)N[C@@H]1COc1ncc(C#CC2CCN(CCCC3CCN(Cc4ccc5c(c4)n(C)c(=O)n5C4CCC(=O)NC4=O)CC3)CC2)c2cc(C(N)=O)c(OC)cc12 (some centres unmarked) [I-193]
3. Cn1c(=O)n(C2CCC(=O)NC2=O)c2ccc(CCCOCCNC[C@H]3CC[C@H](n4cc(NC(=O)c5coc(-c6ccnc(NCC(F)(F)F)c6)n5)c(C(N)=O)n4)CC3)cc21 (some centres unmarked) [I-8]
4. CN(CCCNc1cccc2c1C(=O)N(C1CCC(=O)NC1=O)C2=O)C1CCN(C[C@H]2CC[C@H](n3cc(NC(=O)c4cnn5ccc(N6CCOCC6)nc45)c(C(F)F)n3)CC2)CC1 (some centres unmarked) [I-231]
5. O=C1CCC(N2Cc3c(OCc4ccc(CN5CCN(C[C@H]6CC[C@H](n7cc(NC(=O)c8cnn9ccc(N%10CCOCC%10)nc89)c(C(F)F)n7)CC6)CC5)cc4)cccc3C2=O)C(=O)N1 (some centres unmarked) [I-377]

1: 100 to 1000 nM; 2: 100 to 1000 nM; 3: 10 to 100 nM; 4: 10 to 100 nM; 5: > 1000 nM
